# Test system: monocotylidonous and dicotylidonous weed and crop plants
# runDescription: Herbicidal pre-emergence action
# Format: in vivo
# recordedConditions: 320 g/ha, AVEFA = Avena fatua, visual assessment after three weeks, 100% = plants have died
experimentalReadout: herbicidal effect in percent, AVEFA

Take a look at these entries with their results.
• CCc1cc(C)cc(CC)c1C1C(=O)C2CC(CO)CC2C1=O (centres unmarked) = 80%
• CCc1cc(C)cc(CC)c1C1=C(OC(=O)C(C)(C)C)C2CC(C(OC)OC)CC2C1=O (mixture of isomers) = 100%
• CCc1cc(C)cc(CC)c1C1=C(OC(=O)C(C)(C)C)C2CC(C3OCCO3)CC2C1=O (mixture of isomers) = 90%
• CCc1cc(C)cc(CC)c1C1C(=O)C2CC(C3OCCCO3)CC2C1=O (centres unmarked) = 90%
• CCc1cc(C)cc(CC)c1C1=C(OC(=O)C(C)(C)C)C2CC(/C=N/OC)CC2C1=O (centres unmarked) = 90%

Enter recorded herbicidal effect in percent, AVEFA with monocotylidonous and dicotylidonous weed and crop plants for CCc1cc(C)cc(CC)c1C1=C(OC(=O)C(C)(C)C)C2CC(C3OCCCO3)CC2C1=O (mixture of isomers) here.
90%

Enter herbicidal effect in percent, AVEFA (test system monocotylidonous and dicotylidonous weed and crop plants) for CCc1cc(C)cc(CC)c1C1C(=O)C2CC(OC)CC2C1=O (centres unmarked)
90%
